All values here come from ChEMBL document CHEMBL5604062.

I'd be grateful if you could share measured pIC50 for these entries.
Tested target: Nonstructural protein 3 (Zika virus)
Sequence (A0A024AXB9 whole entry): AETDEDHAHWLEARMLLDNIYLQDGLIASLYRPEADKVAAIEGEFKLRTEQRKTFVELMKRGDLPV
Procedure summary: Functional biochemical assay to identify treatments for viral infectious disease that targets Zika NS2B-NS3 protease. Utilizing a direct enzyme activity measurement method, reading the fluorescence intensity is used to characterize the relative potency of inhibitors as IC50.
Design: species or system PRVABC59
pIC50: −log10 of the molar value.

| Compound structure | Experimental result |
| --- | --- |
| CN(C)c1cc(-c2ccc(S(=O)(=O)Nc3ccc(Cl)cc3C(=O)O)cc2)ccn1 | < 4.00 |
| CNC(=O)[C@H](Nc1cccc(N)n1)c1cc(Cl)cc(CNC(=O)OC(C)(C)C)c1 | < 4.00 |

// batch mode: one pIC50 value per listed entry
1. O=C1CCc2cc(NC(=O)c3cc(Cl)cc4[nH]ncc34)ccc2N1
2. O=C1Cc2c(cccc2C(=O)Nc2nc([C@H]3CCCOC3)cs2)N1
3. CCc1cccc2c(CN3CCC(c4cscn4)CC3)c[nH]c12

Response:
["< 4.00", "< 4.60", "< 4.00"]

// batch mode: one pIC50 value per listed entry
1. CC(C)c1nccn1C[C@H]1CCCN1C(=O)Nc1ccc2c(c1)CNC2
2. O=C(Nc1cc(-c2cccnc2)ccn1)c1nc(C2CC2)co1

Response:
1. < 4.60
2. < 4.60

* * *

I'd be grateful if you could share measured IC50 for these entries.
Tested target: Nonstructural protein 3 (Zika virus)
Procedure summary: Functional biochemical assay to identify treatments for viral infectious disease that targets Zika NS2B-NS3 protease. Utilizing a direct enzyme activity measurement method, reading the fluorescence intensity is used to characterize the relative potency of inhibitors as IC50.
Parameters: species or system PRVABC59

// batch mode: one IC50 value per listed entry
1. CS(=O)(=O)c1cncc(-c2cccc([C@H](NC(=O)OCc3ccccc3)C(=O)Nc3cccc(CN)c3)c2)c1
2. COC(=O)c1cc2scc(Br)c2[nH]1
3. CCn1c(=O)c(N2C[C@H]3C[C@H]2CS(=O)(=O)C3)nc2ccccc21
4. Cc1ccc(F)c(-c2ccc([C@@H](NC(=O)OCc3ccccc3)C(=O)Nc3cccc(CN)c3)cc2)c1

Response:
1. 60.8 µM
2. > 99.5 µM
3. > 99.5 µM
4. 6.81 µM

* * *

Tested target: UniProt:A0A024AXB9
Procedure summary: Functional biochemical assay to identify treatments for viral infectious disease that targets Zika NS2B-NS3 protease. Utilizing a direct enzyme activity measurement method, reading the fluorescence intensity is used to characterize the relative potency of inhibitors as IC50.
Set-up: species or system PRVABC59
pIC50: −log10 of the molar value.
Result type: pIC50

Consider the reported pIC50 for these compounds:
| Compound structure | Experimental result |
| --- | --- |
| O=C(NCC(F)F)[C@H](Nc1ccc2c(c1)CNC2)c1cc(F)cc2[nH]ccc12 | 6.70 |
| O=C(Nc1ccc2c(c1)CNC2)c1cc(Br)cc2c1nc1n2CCCC1 | 6.26 |
| CC(C)(C)OC(=O)N1C[C@@H](O)[C@H](c2c[nH]c3ccccc23)C1 | < 4.00 |
| O=C(Nc1cc(Cl)cc(C(=O)Nc2ccc(C3CNC3)cc2)c1)OCc1ccccc1 | 5.22 |
| O=C(Nc1ccc2c(c1)CNC2)c1ccc2cc[nH]c2c1 | < 4.60 |

// batch mode: one pIC50 value per listed entry
1. CNC(=O)C(=O)/C=C/c1ccccc1C
2. Cc1c(C(=O)Nc2cc(C(=O)N3Cc4cn[nH]c4C3)ccn2)cc(C2CC2)n1C
3. CC(C)[C@H](N)P(=O)(Oc1ccc(F)cc1)Oc1ccc(F)cc1
4. C=CC[C@H]1NCc2cc(N[C@H](C(=O)NCC(F)F)c3cc(Cl)cc(C4CC4)c3)ccc21
5. CS(=O)(=O)c1cccc(CNC(=O)[C@@H](NC(=O)OCc2ccccc2)c2ccc(OCc3ccccc3)cc2)c1
6. C#Cc1ccnc(NC(=O)c2cc(C3CC3)n(C)c2C)c1

Response:
["< 3.70", "< 4.60", "< 4.00", 6.68, "< 4.00", "< 4.60"]

// batch mode: one pIC50 value per listed entry
1. CC(=O)Nc1cc(Cl)cc(C(=O)Nc2cccc(CN)c2)c1
2. NCc1ccccc1Oc1ccc(S(=O)(=O)Nc2ccc(Cl)cc2C(=O)NCC(F)(F)F)cc1
3. O=C(O)c1cc(Cl)ccc1S(=O)(=O)Nc1ccc(-c2cccc(F)c2)cc1

Response:
5.45
< 4.00
< 4.00
